- protocol.summary: viability profiling in RPMI8226 myeloma cells – cell-based, resazurin fluorescence, basal, 24 h, PK04 Diversity Set, profiling panel (AID 1180);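 further: RPMI8826 multiple myeloma cell line at 5000 cells per well; test concentration not given here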
- conditions.used: higher = more signal
List of z-score values.
observable: z-score

INSERT INTO assay_data (compound, recorded_number) VALUES
  ('CCCC[C@@H](O)C1=C(COC)C[C@H]2C(=O)N(Cc3ccccc3)C(=O)[C@H]2[C@H]1CO', 0.126),
  ('COc1ccc(CCNC(=O)[C@@H]2c3ccccc3C(=O)N(C3CCCCC3)[C@H]2c2ccc(CO)cc2)cc1', 0.978),
  ('CCCC[C@@H]1C[C@H]1[C@@H](NC(=O)c1cccs1)c1ccccc1C(F)(F)F', 0.276),
  ('CCOC(=O)C1=C[C@@H](C(C)(C)C)N(S(=O)(=O)c2ccc(C)cc2)[C@H]1c1cccc2ccccc12', -2.66),
  ('CCCC=C(CCC)[C@@H](NS(=O)(=O)CC12CCC(CC1=O)C2(C)C)c1ccc(C(=O)OC)cc1 (some centres undefined)', -0.123),
  ('COc1cc(NN2C(C(O)c3cc(OC)c(OC)c(OC)c3)C=CC3C(=O)N(C)C(=O)C32)cc(OC)c1OC (centres undefined)', -0.97),
  ('C#CCN(Cc1ccccc1Br)[C@H](/C=C/c1ccccc1)[C@@H](O)Cc1ccccc1', -0.971),
  ('CCCC=C(CCC)[C@@H](NS(=O)(=O)c1ccc(C(F)(F)F)cc1)c1ccccc1', -0.683),
  ('C=CC[C@@]1(C(=O)NCCCOC)N=C(c2ccc(OCCCO)cc2)O[C@@H]1c1ccccc1N=[N+]=[N-]', -0.137),
  ('[N-]=[N+]=Nc1ccccc1C[C@@]1(C(=O)N2CCOCC2)N=C(c2ccc(OCCCO)cc2)O[C@@H]1c1ccccc1', -0.0984),
  ('COCCCNC(=O)[C@@]1(CCC(=O)OC(C)(C)C)N=C(c2ccc(OCCCO)cc2)O[C@H]1c1ccccc1N=[N+]=[N-]', 0.72),
  ('Cc1ccc(S[C@]2(C(=O)NC(C)C)CC(=O)N(Cc3cc(C(F)(F)F)cc(C(F)(F)F)c3)[C@@H]2c2ccc(CO)cc2)cc1', 0.483),
  ('COC(=O)[C@]1(CCS(=O)(=O)c2ccccc2)N=C(c2ccc(OCCCO)cc2)O[C@@H]1c1ccccc1N=[N+]=[N-]', -2.26),
  ('Cc1ccc(N2C(=O)c3ccccc3[C@@H](C(=O)NCCCN(C)C)[C@@H]2c2ccc(CO)cc2)nc1', 0.262),
  ('COCCOC(=O)N1C(=O)[C@@]2(c3cc(C#CC4(O)CCCCCC4)ccc31)[C@H](c1ccc(O)cc1)N1[C@H](c3ccccc3)[C@H](c3ccccc3)OC(=O)[C@H]1[C@@H]2C(=O)N1CCN(c2ncccn2)CC1', -0.528),
  ('COc1ccc([Si](C)(C)[C@H]2[C@H](CC(=O)N3Cc4ccccc4C[C@H]3CO)O[C@@]3(C(=O)N(Cc4ccc(N5CCOC5=O)cc4)c4ccccc43)[C@@H]2C)cc1', -2.27),
  ('CCCCC(=C=CC[C@H](O)c1ccc(OCCO)cc1)CCO', 0.0466),
  ('O=C1CS(=O)(=O)C(c2cccc([N+](=O)[O-])c2)N1c1ccccc1 (centres undefined)', 0.511),
  ('CCOC(=O)C[C@H]1[C@H](OC(=O)Cc2ccc3c(c2)OCO3)[C@@H](NC(=O)C2CCCCC2)c2cc(OCCCO)ccc2N1C(=O)c1ccccc1', 0.3),
  ('COC(=O)C(CC#Cc1ccc2c(c1)[C@]1(C(=O)N2)[C@H](c2ccc(O)cc2)N2[C@H](c3ccccc3)[C@H](c3ccccc3)OC(=O)[C@H]2[C@@H]1C(=O)NC[C@H](O)c1ccccc1)C(=O)OC', -1.37),
  ('CN(C)C(=O)[C@@]1(Cc2ccccc2)N=C(c2ccc(OCCCO)cc2)O[C@H]1c1ccccc1', 1.16),
  ('COC(=O)[C@@]1(Cc2ccc(OC)cc2)[C@H]2c3cc(C(=O)N4CCCC4)n(CCc4c[nH]c5ccc(OC)cc45)c3C[C@H]2CN1C(=O)c1ccccc1', -3.35),
  ('CN(C)C(=O)[C@]1(Cc2ccccc2CN=[N+]=[N-])N=C(c2ccc(OCCCO)cc2)O[C@@H]1c1ccccc1', -1.16),
  ('C=CCNC(=O)[C@@H]1[C@H]2C(=O)O[C@H](c3ccccc3)[C@H](c3ccccc3)N2[C@H](c2ccccc2OCCO)[C@@]12C(=O)Nc1ccc(C#CCCO)cc12', -0.315),
  ('CO[C@H]1O[C@H](CO)[C@@H](OC(=O)Nc2ccccc2)[C@H](OC(=O)c2cc3ccccc3[nH]2)[C@H]1OC(=O)c1cc2ccccc2[nH]1', -1.64),
  ('CC(C)(C)OC(=O)CC[C@@]1(C(=O)NCC(O)CO)N=C(c2ccc(OCCCO)cc2)O[C@@H]1c1ccccc1CN=[N+]=[N-] (some centres undefined)', 0.126),
  ('C[N+](C)(C)CCCC[C@@H]1NC(=O)[C@@H]2C[C@H](C(=O)NCCCCCCN)[C@H](c3cccc(OCCO)c3)N2C1=O', -1.3),
  ('CCOC(=O)C[C@H]1[C@H](OC(=O)c2ccc(C(=O)c3ccccc3)cc2)[C@@H](NC(=O)CC(C)C)c2cc(OCCCO)ccc2N1C(=O)c1ccccc1', -0.281),
  ('CC(C)c1ccc(NN2C(C(O)c3ccc(F)cc3)C=CC3C(=O)N(c4ccccc4)C(=O)C32)cc1 (centres undefined)', -0.895);

Source of measurements: PubChem BioAssay
